System: SF-268
Test: NCI tumour cell line growth inhibition, 48 h
Activity calls are given as the source filed them. Rule as the data show it: active = GI50 up to about 1.1 µM and inactive = higher.
# output must be one of true (active), false (inactive)

                                   compound  discrete_label
0  O=C(c1cc(Cl)cc(Cl)c1)N(Cc1cccnc1)C(=S)N(Cc1cccnc1)C(=O)c1cc(Cl)cc(Cl)c1           false
1                   C[Si](C)(C)C#CCOC=C1CC1           false

Which outcome was entered for the compound Cc1ccccc1C(=O)c1ccccc1O in this test?
false

Which outcome was entered for the compound N#CC(C#N)=Cn1c(=S)[nH]c2ccccc21 in this test?
false

Which outcome was entered for the compound O=C1C(=O)N(c2ccc(Cl)c(Cl)c2)C(=O)C(=O)C1c1nc2ccccc2o1 in this test?
false

Which outcome was entered for the compound CSc1n[n+]2c(s1)SCCC2 in this test?
false

Which outcome was entered for the compound NS(=O)(=O)c1ccc(/N=N/c2c(O)c(C(=O)O)cc3ccccc23)cc1 in this test?
false

Which outcome was entered for the compound CNC(=O)CCCNC(=O)CCCC(=O)OC in this test?
false

Which outcome was entered for the compound O=c1c2cccnc2ncn1CCCN1CCCCC1 in this test?
false

Which outcome was entered for the compound O=C1c2ccccc2C(=O)c2c(NCC(O)CO)ccc(NCC(O)CO)c21 (stereo not given) in this test?
false

====

System: RPMI-8226
Assay: NCI tumour cell line growth inhibition, 48 h
Activity calls are given as the source filed them. Cut-off read from the data, not from the text of the source: active = GI50 up to about 1.1 µM and inactive = higher.
# output must be one of active, inactive

Here's what some known entries look like.
                                   molecule  discrete_label
0                      CC(=O)COC(=O)CC(C)=O        inactive
1  O=C(NC(Cc1ccccc1)C(=O)CCl)OCc1ccccc1 (stereo not drawn)        inactive
2  C/C(=N\N=C(N)N)c1sc(-c2nc(C)c(/C(C)=N/N=C(N)N)s2)nc1C        inactive

Which outcome was entered for the molecule CCP(=S)(CC)CCl in this test?
inactive

Which outcome was entered for the molecule OCC1NCC(O)C(O)C1O (stereo not drawn) in this test?
inactive

Which outcome was entered for the molecule C=CCN1C[C@@H](C)N([C@@H](c2ccccc2)c2ccc(C(=O)N(CC)CC)cc2)C[C@@H]1C in this test?
inactive

Which outcome was entered for the molecule COc1ccc(C(=O)CCN(C)C)c2ccccc12 in this test?
active

Which outcome was entered for the molecule CC(=O)Nc1ccc(/C=C/c2ccc(NC(=O)Nc3ccc(/C=C/c4ccc(NC(C)=O)cc4S(=O)(=O)O)c(S(=O)(=O)O)c3)cc2S(=O)(=O)O)c(S(=O)(=O)O)c1 in this test?
inactive

====

Tested on: A549
Experiment: NCI tumour cell line growth inhibition, 48 h
The source made the active and inactive calls. Rule as the data show it: active = GI50 up to about 1.1 µM and inactive = higher.
# output must be one of YES (active), NO (inactive)

Here's what some known entries look like.
compound	discrete_label
CSc1c([S+](C)[O-])c2ccccc2n1C (stereo unspecified)	NO
COc1ccc(C2C(Cl)C(=O)N2NC(=O)Cc2ccccc2)cc1OC (stereo unspecified)	NO
O=C1OC(=O)C2=C1C(c1cccs1)C=C(c1cccnc1)N2c1ccncc1 (stereo unspecified)	NO
Cc1nc(C)c(N2CCN(S(=O)(=O)N(Cc3ccccc3)Cc3ccccc3)CC2)c(O)n1	NO
COc1cccc2c1C1(O)C2CCCCCCCCCC12OCCCO2 (stereo unspecified)	NO

Moving on to the next compound.
Which outcome was entered for the compound CC(C)OP(=O)(OC(C)C)C(C(F)(F)F)C(F)(F)F in this test?
NO

====

Test system: M14
Assay: NCI tumour cell line growth inhibition, 48 h
Activity calls are given as the source filed them. Rule as the data show it: active = GI50 up to about 1.1 µM and inactive = higher.
property: GI50

Example cases with answers are listed next.
                                   molecule  observed_measurement
0  O=C1c2ccccc2C(=O)c2nn(N=P(CP(=Nn3nc4c(n3)C(=O)c3ccccc3C4=O)(c3ccccc3)c3ccccc3)(c3ccccc3)c3ccccc3)nc21   > 100 µM (inactive)
1  CN(C)/C=N/S(=O)(=O)c1nn2c(C=O)c(-c3cc4ccccc4oc3=O)nc2s1    7.83 µM (inactive)
2  CCOC(=O)C1=NN(c2ccccc2)C2=CC(C)=NN(C)C(=S)N21   > 100 µM (inactive)

Identify measured GI50 corresponding to O=C(O)c1[nH]c2c([N+](=O)[O-])cc([N+](=O)[O-])cc2c1C(=O)O
56.1 µM (inactive)

====

Test system: OVCAR-5
Assay: NCI tumour cell line growth inhibition, 48 h
Calls of active or inactive are those of the source. Cut-off read from the data, not from the text of the source: active = GI50 up to about 1.1 µM and inactive = higher.
# output must be one of active, inactive

molecule	discrete_label
COc1ccc(C2C3CCc4ccccc4C3=NN2S(=O)(=O)c2ccc(Cl)cc2)cc1 (centres undefined)	inactive
Oc1ccc2ccccc2c1-c1nnc(CCCCCCCCc2nnc(-c3c(O)ccc4ccccc34)o2)o1	inactive
Nc1n[nH]c2nc3ccc(C(F)(F)F)cc3nc12	inactive
O=NN1CCNC1Cc1ccccc1 (centres undefined)	inactive
O=C1/C(=C/c2ccc(Cl)cc2)CCC/C1=C\c1ccc(O)c(CN2CCCCC2)c1	inactive

Which outcome was entered for the molecule CCOC(=O)NC(Nc1ccc(C(=O)O)cc1)(C(F)(F)F)C(F)(F)F in this test?
inactive

====

# GI50 values compiled below
Tested on: LXFL 529
Test: NCI tumour cell line growth inhibition, 48 h
The source made the active and inactive calls. Cut-off read from the data, not from the text of the source: active = GI50 up to about 1.1 µM and inactive = higher.

Example cases with answers are listed next.
>>> print(df.to_string())
                                   molecule  property  observed_measurement
0  O=C(NC(Cc1ccccc1)C(=O)CCl)OCc1ccccc1 (stereo not given)      GI50     3.6 µM (inactive)
1       c1ccc(SCCCC(Sc2ccccc2)Sc2ccccc2)cc1      GI50   > 100 µM (inactive)
2  C=C(C)C1Cc2c(cc(OC)c3c(=O)c4ccccc4n(C)c23)O1 (stereo not given)      GI50   > 100 µM (inactive)
3  O=C(O)C12CC3CC(C1)C2C=C3P(=O)(O)O (stereo not given)      GI50   > 100 µM (inactive)

Identify measured GI50 corresponding to CC(=O)COC(=O)CC(C)=O
> 100 µM (inactive)

====

System: ACHN
Assay: NCI tumour cell line growth inhibition, 48 h
Activity calls are given as the source filed them. Rule as the data show it: active = GI50 up to about 1.1 µM and inactive = higher.
# output must be one of 1 (yes) (active), 0 (no) (inactive)

Here's what some known entries look like.
compound	discrete_label
O=[N+]([O-])c1ccc(S(=O)(=O)Cc2ccccc2)c2nonc12	0 (no)
Cc1ccc(C(=O)N/N=C(\N=N\c2cccc(C)c2)c2ccc(N(CCC#N)CCC#N)cc2C)cc1	0 (no)
CN1CN(C(=O)N2CN(C)C(=O)N(C)C2)CN(C)C1=O	0 (no)

Which outcome was entered for the compound O=C1OCC2OC(=O)c3cc(O)c(O)c(O)c3-c3c(O)c(O)c(O)c4c3C(=O)OC(C2OC(=O)c2cc(O)c(O)c(O)c2-c2c1cc(O)c(O)c2O)C1OC(=O)c2c-4c(O)c(O)c(O)c2[C@@H]1C(O)C(O)C(O)C(O)CO (some centres not stated) in this test?
0 (no)

Which outcome was entered for the compound COc1ccc(Cc2cc(OC)c(OC)c(OC)c2)cc1 in this test?
1 (yes)

Which outcome was entered for the compound O=C(CC(=O)Nc1cccc(C(=O)O)c1)Nc1cccc(C(=O)O)c1 in this test?
0 (no)

Which outcome was entered for the compound Nc1ncnc2c1ncn2[C@@H]1O[C@H](C(=O)O)[C@@H](O)[C@H]1O in this test?
0 (no)

====

Test system: UACC-257
Assay: NCI tumour cell line growth inhibition, 48 h
Calls of active or inactive are those of the source. Cut-off read from the data, not from the text of the source: active = GI50 up to about 1.1 µM and inactive = higher.
# output must be one of active, inactive

compound	discrete_label
O=C(NC(Cc1ccccc1)C(=O)CCl)OCc1ccccc1 (configuration not stated)	inactive
O=C1CSC2(CC(/C=C/c3ccccc3)=NN2c2cccc(S(=O)(=O)O)c2)N1c1nc2ccccc2s1 (configuration not stated)	inactive
CNC(=O)CCCNC(=O)CCCC(=O)OC	inactive
Cc1ccc(C2CC(c3ccc([N+](=O)[O-])cc3)=Nc3ccccc3S2)cc1 (configuration not stated)	inactive
O=C(/C=C1\N=C(c2ccccc2)N(c2nc3c(Cl)cc(Cl)cc3s2)C1=O)/C=C/c1ccccc1	inactive

Which outcome was entered for the compound Cc1cc2oc(=O)[nH]c(=S)c2c(C)c1C in this test?
inactive

Which outcome was entered for the compound OCCN1CCN(c2nc(N3CCCC3)c3nc(Cl)c(NCc4ccccc4)nc3n2)CC1 in this test?
inactive

====

Test system: SW-620
Test: NCI tumour cell line growth inhibition, 48 h
Calls of active or inactive are those of the source. No stated cut-off is given here; in the data, active = GI50 up to about 1.1 µM and inactive = higher.
# output must be one of true (1) (active), false (0) (inactive)

Here's what some known entries look like.
compound	discrete_label
CN1CCCC2(CCCc3ccccc32)C1 (stereo not given)	false (0)
C#CCOCn1cnc2c(N)ncnc21	false (0)
CC(=O)N(CCc1ccccc1)C(C#N)c1ccccc1 (stereo not given)	false (0)

Moving on to the next compound.
Which outcome was entered for the compound COC(=O)C1(Cc2ccccc2)Cc2cc3c(cc2C1=O)CCC3 (stereo not given) in this test?
false (0)
